# Tested on: 931267-113-T-J1-PDC KRAS spheroid with HUVEC/MSC, viability
# Protocol Description: Anticancer human tumor 931267-113-T-J1-PDC patient-derived colon adenocarcinoma cell line growth inhibition [KRAS2]
# Particulars: second compound 0.1 µM; first compound 0.01 µM; active compounds read low
Measurement Label: viability, T/C (%)
Give the value, in units of %, as a plain number.

Documented viability, T/C of CC(=O)Nc1cccc(-n2c(=O)n(C3CC3)c(=O)c3c(Nc4ccc(I)cc4F)n(C)c(=O)c(C)c32)c1 + COc1cc2nc(C)nc(NC(C)c3cc(N)cc(C(F)(F)F)c3)c2cc1OC1CCOC1 : 51

Value of viability, T/C reported for the molecule CCN1CCN(Cc2ccc(Nc3ncc(F)c(-c4cc(F)c5nc(C)n(C(C)C)c5c4)n3)nc2)CC1 + COc1cc2nc(C)nc(NC(C)c3cc(N)cc(C(F)(F)F)c3)c2cc1OC1CCOC1 is 86.8

// sample CC(=O)OC12COC1CC(O)C1(C)C(=O)C(O)C3=C(C)C(OC(=O)C(O)C(NC(=O)OC(C)(C)C)c4ccccc4)CC(O)(C(OC(=O)c4ccccc4)C21)C3(C)C (stereo not given) + CNCc1ccccc1-c1csc(C(C)Nc2nc(C)nc3cc(OC)c(OC)cc23)c1 , its viability, T/C was 88.2

So for Cn1ncnc1[C@H]1c2n[nH]c(=O)c3cc(F)cc(c23)N[C@@H]1c1ccc(F)cc1 + C=CC(=O)N1CCN(c2nc(OCC3CCCN3C)nc3c2CCN(c2cccc4cccc(C)c24)C3)CC1CC#N , the logged viability, T/C turned out to be 77.9

Short answer for Cn1ncnc1[C@H]1c2n[nH]c(=O)c3cc(F)cc(c23)N[C@@H]1c1ccc(F)cc1 + CC1OCC2(CCN(c3cnc(Sc4ccnc(N)c4Cl)c(N)n3)CC2)C1N : viability, T/C was 89.3

----------
# Test system: 931267-113-T-J1-PDC KRAS spheroid with HUVEC/MSC, viability
# Protocol Description: Anticancer human tumor 931267-113-T-J1-PDC cell line growth inhibition [KRAS2];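 note: compound exposure lasted 7 days before the readout; 100% = DMSO vehicle control viability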
# Particulars: second compound 0.1 µM; first compound 0.00316 µM; active compounds read low
hey, just use fulfilled if measured viability, T/C is less than 70%, otherwise not fulfilled

Is the reported viability, T/C for CC(=O)Nc1cccc(-n2c(=O)n(C3CC3)c(=O)c3c(Nc4ccc(I)cc4F)n(C)c(=O)c(C)c32)c1 + COc1cc2nc(C)nc(NC(C)c3cc(N)cc(C(F)(F)F)c3)c2cc1OC1CCOC1 strictly below 70%?
not fulfilled

Does this compound meet the criterion viability, T/C < 70%? CN(C)C/C=C/C(=O)Nc1cc2c(Nc3ccc(F)c(Cl)c3)ncnc2cc1O[C@H]1CCOC1 + CNCc1ccccc1-c1csc(C(C)Nc2nc(C)nc3cc(OC)c(OC)cc23)c1
not fulfilled

For this compound, is viability, T/C lower than 70%? CC(=O)Nc1cccc(-n2c(=O)n(C3CC3)c(=O)c3c(Nc4ccc(I)cc4F)n(C)c(=O)c(C)c32)c1 + CC1OCC2(CCN(c3cnc(Sc4ccnc(N)c4Cl)c(N)n3)CC2)C1N
fulfilled

For this compound, is viability, T/C lower than 70%? CC(C)n1nc(-c2ccc3oc(N)nc3c2)c2c(N)ncnc21 + C=CC(=O)N1CCN(c2nc(OCC3CCCN3C)nc3c2CCN(c2cccc4cccc(C)c24)C3)CC1CC#N
fulfilled

For this compound, is viability, T/C lower than 70%? Cn1ncnc1[C@H]1c2n[nH]c(=O)c3cc(F)cc(c23)N[C@@H]1c1ccc(F)cc1 + CC1OCC2(CCN(c3cnc(Sc4ccnc(N)c4Cl)c(N)n3)CC2)C1N
not fulfilled

Identify whether the compound Cn1ncnc1[C@H]1c2n[nH]c(=O)c3cc(F)cc(c23)N[C@@H]1c1ccc(F)cc1 + COc1cc2nc(C)nc(NC(C)c3cc(N)cc(C(F)(F)F)c3)c2cc1OC1CCOC1 records viability, T/C below 70%.
not fulfilled

Strictly below 70%: is that where viability, T/C of CCN1CCN(Cc2ccc(Nc3ncc(F)c(-c4cc(F)c5nc(C)n(C(C)C)c5c4)n3)nc2)CC1 + CNCc1ccccc1-c1csc(C(C)Nc2nc(C)nc3cc(OC)c(OC)cc23)c1 sits?
not fulfilled

Would you kindly verify if viability, T/C of CCN1CCN(Cc2ccc(Nc3ncc(F)c(-c4cc(F)c5nc(C)n(C(C)C)c5c4)n3)nc2)CC1 + CC1OCC2(CCN(c3cnc(Sc4ccnc(N)c4Cl)c(N)n3)CC2)C1N is strictly less than 70%?
not fulfilled

Strictly below 70%: is that where viability, T/C of CC(=O)Nc1cccc(-n2c(=O)n(C3CC3)c(=O)c3c(Nc4ccc(I)cc4F)n(C)c(=O)c(C)c32)c1 + C=CC(=O)N1CCN(c2nc(OCC3CCCN3C)nc3c2CCN(c2cccc4cccc(C)c24)C3)CC1CC#N sits?
not fulfilled
